Tested on: NCI-H23
Test: NCI tumour cell line growth inhibition, 48 h
Active and inactive are the calls of the source. No stated cut-off is given here; in the data, active = GI50 up to about 1.1 µM and inactive = higher.
Recorded GI50 by entry

Answered examples (3):
Molecule	Reported property	Observed value
Cn1c(-c2cccs2)cc(-c2cccs2)c1-c1ccco1	GI50	3.02 µM (inactive)
CCOC(=O)/C(C(=O)c1ccccc1)=C1\N[C@H](C(=O)OCC)CS1	GI50	> 100 µM (inactive)
CC(=O)NC(c1nc2cc(C)c(C)cc2[nH]1)c1nc2cc(C)c(C)cc2[nH]1	GI50	32.2 µM (inactive)

According to the records, this molecule [N-]=[N+]=Nc1c(-c2ccccc2)c(Cl)nc2ccccc12 displays GI50 of 33.5 µM (inactive)

According to the records, this molecule CCOC(=O)CCC(NC(=O)c1ccc(NC(OC)c2nc3cc(C(F)(F)F)ccc3nc2-c2ccccc2)cc1)C(=O)OCC (stereo unspecified) displays GI50 of 16 µM (inactive)

According to the records, this molecule c1ccc(CNc2nncc3[nH]cnc23)cc1 displays GI50 of > 100 µM (inactive)
